Some binders, each annotated with its measured Kd.
Biological target: T1, AFP158/HLA-A*02:01 complex (human)
T1 construct: flowed as analyte in SPR
Test: SPR, crude scFv captured, pMHC analyte;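 also: complex injected at several concentrations over the chip, association phase then running buffer for dissociation, KD derived from on- and off-rates computed from both curves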
readoutType: Kd (nM)

binder	unitSpec	recordedResult
AS170036 VL1VH1-57H98I108D (scFv, also called 62-AS170036 VL1VH1-57H98I108D) scFv: QSALTQPRSVSGSPGQSVTISCAGTSSDVGSENYVSWYQQHPGKAPKLMIYQVNKRASGVPDRFSGSKSGNTASLTISGLQAEDEADYYCASYRSSDINIVFGGGTKLTVLGGGGSGGGGSGGGGSEVQLVESGGGLVQPGGSLRLSCAASGFTFSSYAMSWVRQAPGKGLEWVSTINSGTGHPYYADSVKGRFTISRDNSKNTLYLQMNSLRAEDTAVYYCAKNFFDGSWFLDPPAMDYWGQGTLVTVSSHHHHHH	nM	4.9
AS170036 VL1VH1-57H98I108S (scFv, also called 63-AS170036 VL1VH1-57H98I108S) scFv: QSALTQPRSVSGSPGQSVTISCAGTSSDVGSENYVSWYQQHPGKAPKLMIYQVNKRASGVPDRFSGSKSGNTASLTISGLQAEDEADYYCASYRSSDINIVFGGGTKLTVLGGGGSGGGGSGGGGSEVQLVESGGGLVQPGGSLRLSCAASGFTFSSYAMSWVRQAPGKGLEWVSTINSGTGHPYYADSVKGRFTISRDNSKNTLYLQMNSLRAEDTAVYYCAKNFFDGSWFLSPPAMDYWGQGTLVTVSSHHHHHH	nM	8.5
AS170036 VL1VH1-56Y98Q108D (scFv, also called 47-AS170036 VL1VH1-56Y98Q108D) scFv: QSALTQPRSVSGSPGQSVTISCAGTSSDVGSENYVSWYQQHPGKAPKLMIYQVNKRASGVPDRFSGSKSGNTASLTISGLQAEDEADYYCASYRSSDQNIVFGGGTKLTVLGGGGSGGGGSGGGGSEVQLVESGGGLVQPGGSLRLSCAASGFTFSSYAMSWVRQAPGKGLEWVSTINSGTYSPYYADSVKGRFTISRDNSKNTLYLQMNSLRAEDTAVYYCAKNFFDGSWFLDPPAMDYWGQGTLVTVSSHHHHHH	nM	1.8
